target: Urotensin-2 receptor (Homo sapiens); test: Mobilization of intracellular calcium in CHO cells transiently transfected with human Urotensin 2 receptor; assay type: functional, cell-based; details: cho
Sequence (Q9UKP6 whole entry): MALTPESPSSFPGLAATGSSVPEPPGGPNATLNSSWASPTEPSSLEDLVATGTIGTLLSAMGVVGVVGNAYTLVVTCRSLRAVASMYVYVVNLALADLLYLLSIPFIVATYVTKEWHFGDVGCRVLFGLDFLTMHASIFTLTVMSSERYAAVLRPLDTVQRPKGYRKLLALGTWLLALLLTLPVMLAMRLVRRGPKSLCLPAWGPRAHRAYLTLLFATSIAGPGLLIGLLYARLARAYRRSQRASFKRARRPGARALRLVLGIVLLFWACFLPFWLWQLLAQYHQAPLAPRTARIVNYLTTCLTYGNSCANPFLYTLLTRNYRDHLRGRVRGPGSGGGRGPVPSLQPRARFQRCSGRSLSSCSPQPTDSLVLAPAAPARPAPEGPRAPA
pEC50: −log10 of the molar value. Positions of bridges follow the written chain, without caps; N, C: chain ends. Residues, ends and D or L forms follow the SMILES beside them.
Tick yes if pEC50 is 8 or greater. Tick no if pEC50 is less than 8.

1) C[C@H](NC(=O)[C@@H]1CSSC[C@H](NC(=O)[C@H](CC(=O)O)NC(=O)[C@@H]2CCCN2C(=O)[C@@H](NC(=O)[C@@H](N)CCC(=O)O)[C@@H](C)O)C(=O)N[C@@H](Cc2ccccc2)C(=O)N[C@@H](Cc2c[nH]c3ccccc23)C(=O)N[C@@H](CCCCN)C(=O)N[C@@H](Cc2ccc(O)cc2)C(=O)N1)C(=O)O (H-ETPDCFWKYCA-OH; disulfide 5-10)
yes
2) CC(C)[C@H](NC(=O)[C@@H]1CSSC[C@H](NC(=O)[C@H](CC(=O)O)NC(=O)[C@@H]2CCCN2C(=O)[C@@H](NC(=O)[C@@H](N)CCC(=O)O)[C@@H](C)O)C(=O)N[C@@H](Cc2ccccc2)C(=O)N[C@@H](C)C(=O)N[C@@H](CCCCN)C(=O)N[C@@H](Cc2ccc(O)cc2)C(=O)N1)C(=O)O (H-ETPDCFAKYCV-OH; disulfide 5-10)
no
3) CC(C)[C@H](NC(=O)[C@@H]1CSSC[C@H](NC(=O)[C@H](CC(=O)O)NC(=O)[C@@H]2CCCN2C(=O)[C@@H](NC(=O)[C@@H](N)CCC(=O)O)[C@@H](C)O)C(=O)N[C@@H](Cc2ccccc2)C(=O)N[C@@H](CCCCN)C(=O)N[C@@H](Cc2ccc(O)cc2)C(=O)N1)C(=O)O (H-ETPDCFKYCV-OH; disulfide 5-9)
no
4) CC(C)[C@H](NC(=O)[C@@H]1CSSC[C@H](NC(=O)[C@H](CC(=O)O)NC(=O)[C@@H]2CCCN2C(=O)[C@@H](NC(=O)[C@@H](N)CCC(=O)O)[C@@H](C)O)C(=O)N[C@@H](Cc2ccccc2)C(=O)N[C@@H](Cc2c[nH]c3ccccc23)C(=O)N[C@@H](CCCCN)C(=O)N[C@@H](C)C(=O)N1)C(=O)O (H-ETPDCFWKACV-OH; disulfide 5-10)
no
5) CC(C)[C@H](NC(=O)[C@@H]1CSSC[C@H](NC(=O)[C@H](CC(=O)O)NC(=O)[C@@H]2CCCN2C(=O)[C@@H](NC(=O)[C@@H](N)CCC(=O)O)[C@@H](C)O)C(=O)N[C@@H](C)C(=O)N[C@@H](Cc2c[nH]c3ccccc23)C(=O)N[C@@H](CCCCN)C(=O)N[C@@H](Cc2ccc(O)cc2)C(=O)N1)C(=O)O (H-ETPDCAWKYCV-OH; disulfide 5-10)
yes
6) CC(C)[C@H](NC(=O)[C@@H]1CSSC[C@H](NC(=O)[C@H](CC(=O)O)NC(=O)[C@@H]2CCCN2C(=O)[C@@H](NC(=O)[C@@H](N)CCC(=O)O)[C@@H](C)O)C(=O)N[C@@H](Cc2c[nH]c3ccccc23)C(=O)N[C@@H](CCCCN)C(=O)N[C@@H](Cc2ccc(O)cc2)C(=O)N1)C(=O)O (H-ETPDCWKYCV-OH; disulfide 5-9)
no
7) CC(C)[C@H](NC(=O)[C@@H]1CSSC[C@H](NC(=O)[C@H](CC(=O)O)NC(=O)[C@@H]2CCCN2)C(=O)N[C@@H](Cc2ccccc2)C(=O)N[C@@H](Cc2c[nH]c3ccccc23)C(=O)N[C@@H](CCCCN)C(=O)N[C@@H](Cc2ccc(O)cc2)C(=O)N1)C(=O)O (H-PDCFWKYCV-OH; disulfide 3-8)
yes
8) CC(C)[C@H](NC(=O)[C@@H]1CSSC[C@H](NC(=O)[C@H](CC(=O)O)NC(=O)[C@@H]2CCCN2C(=O)[C@@H](NC(=O)[C@@H](N)CCC(=O)O)[C@@H](C)O)C(=O)N[C@@H](Cc2ccccc2)C(=O)N[C@@H](Cc2c[nH]c3ccccc23)C(=O)N[C@@H](C)C(=O)N[C@@H](Cc2ccc(O)cc2)C(=O)N1)C(=O)O (H-ETPDCFWAYCV-OH; disulfide 5-10)
no
9) C[C@@H](O)[C@H](NC(=O)[C@@H](N)CCC(=O)O)C(=O)N1CCC[C@H]1C(=O)N[C@@H](CC(=O)O)C(=O)N[C@H]1CSSC[C@@H](C(=O)O)NC(=O)[C@H](Cc2ccc(O)cc2)NC(=O)[C@H](CCCCN)NC(=O)[C@H](Cc2c[nH]c3ccccc23)NC(=O)[C@H](Cc2ccccc2)NC1=O (H-ETPDCFWKYC-OH; disulfide 5-10)
yes
10) CC(C)[C@H](NC(=O)[C@@H]1CSSC[C@H](NC(=O)[C@H](CC(=O)O)NC(=O)[C@@H]2CCCN2C(=O)[C@@H](N)[C@@H](C)O)C(=O)N[C@@H](Cc2ccccc2)C(=O)N[C@@H](Cc2c[nH]c3ccccc23)C(=O)N[C@@H](CCCCN)C(=O)N[C@@H](Cc2ccc(O)cc2)C(=O)N1)C(=O)O (H-TPDCFWKYCV-OH; disulfide 4-9)
yes
